Recorded Particle size (nm), one value per entry.
Experiment: Particle size and PDI of lipid nanoparticles by dynamic light scattering
Assay type: physicochemical
Conditions: lipid nanoparticle with the cationic lipid, cholesterol, DSPC, DMG-PEG2000 (50/38.5/10/1.5 mol%), luciferase mRNA, N/P 6
Expressed in nm, but write only the number.

[
  {
    "COMPOUND": "CCCCCCCCCCOC(=O)C(C)(C)CCCCCC(CCCCCC(C)(C)C(=O)OCCCCCCCCCC)OC(=O)CN1CCOCC1",
    "UNIT_INFO": "nm",
    "Particle size (nm)": 32.61
  },
  {
    "COMPOUND": "CCCCCCCCCNC(=O)C(C)(C)CCCCCC(CCCCCC(C)(C)C(=O)NCCCCCCCCC)OC(=O)CCN(C)C",
    "UNIT_INFO": "nm",
    "Particle size (nm)": 352.82
  },
  {
    "COMPOUND": "CCCCCCCCCOC(=O)C(C)(C)CCCCCC(CCCCCC(C)(C)C(=O)OCCCCCCCCC)OC(=O)CCN(C)C",
    "UNIT_INFO": "nm",
    "Particle size (nm)": 133.80
  },
  {
    "COMPOUND": "CCCCCCCCCCNC(=O)C(C)(C)CCCCCC(CCCCCC(C)(C)C(=O)NCCCCCCCCCC)OC(=O)CCCN(C)C",
    "UNIT_INFO": "nm",
    "Particle size (nm)": 306.07
  },
  {
    "COMPOUND": "CCCCCCCCCCOC(=O)C(C)(C)CCCCC(CCCCC(C)(C)C(=O)OCC(CCCCC)CCCCCCC)OC(=O)CCCN(C)C (stereo not shown)",
    "UNIT_INFO": "nm",
    "Particle size (nm)": 84.98
  }
]

## Task Identify Particle size (nm) associated with the compound CCCCCCCCCOC(=O)C(C)(C)CCCCCC(CCCCCC(C)(C)C(=O)OCCCCCCCCC)OC(=O)CC1CCN(CCO)CC1
## Result 112.65

## Task Identify Particle size (nm) associated with the compound CCCCC(CC#CCOC(=O)C(C)(C)CCCCCC(CCCCCC(C)(C)C(=O)OCC#CCC(CCCC)CCCC)OC(=O)CCCN(C)C)CCCC
## Result 127.31

###

Experiment: Encapsulation efficiency of lipid nanoparticles, Quant-It RiboGreen RNA Assay
Format: physicochemical
Details: lipid nanoparticle with the cationic lipid, luciferase mRNA
Experimental: […] The particle size and particle size dispersity index (PDI) of the prepared lipid nanoparticles were measured using a Zetasizer Pro (purchased from Malvern Instruments Ltd) and a DynaPro NanoStar (purchased from Wyatt) dynamic light scattering instrument. […] This parameter was measured by the method of Quant-It™ RiboGreen RNA Assay (purchased from Invitrogen). […]
ASSAY_READOUT: Encapsulation efficiency (%)
Expressed in %, but write only the number.

[
  {
    "COMPOUND": "CCCCCCCCCCCCNC(=O)C(C)(C)CCCCCC(CCCCCC(C)(C)C(=O)NCCCCCCCCCCCC)OC(=O)CCN(C)C",
    "Encapsulation efficiency (%)": 53.83
  },
  {
    "COMPOUND": "CCCCCCCCCOC(=O)C(C)(C)CCCCCC(CCCCCC(C)(C)C(=O)OCCCCCCCCC)OC(=O)C1CCN(C)CC1",
    "Encapsulation efficiency (%)": 90.03
  },
  {
    "COMPOUND": "CCCCC#CCCCCOC(=O)C(C)(C)CCCCCC(CCCCCC(C)(C)C(=O)OCCCCC#CCCCC)OC(=O)CCCN(C)C",
    "Encapsulation efficiency (%)": 32.43
  },
  {
    "COMPOUND": "CCCCCCCCCOC(=O)C(C)(C)CCCCCC(CCCCCC(C)(C)C(=O)OCC(CCCCC)CCCCCCC)OC(=O)CC1CCN(C)CC1 (stereo not drawn)",
    "Encapsulation efficiency (%)": 95.12
  }
]

## Task Identify Encapsulation efficiency (%) associated with the compound CCCCCCCCCCSC(=O)C(C)(C)CCCCCC(CCCCCC(C)(C)C(=O)SCCCCCCCCCC)OC(=O)C1CCN(C(C)C)CC1
## Result 94.67

## Task Identify Encapsulation efficiency (%) associated with the compound CCCCCCCCCSC(=O)C(C)(C)CCCCCC(CCCCCC(C)(C)C(=O)SCCCCCCCCC)OC(=O)CC1CCN(CCO)CC1
## Result 92.65

###

Assay: Particle size and PDI of lipid nanoparticles by dynamic light scattering
Type: physicochemical
Details: lipid nanoparticle with the cationic lipid, cholesterol, DSPC, DMG-PEG2000 (50/38.5/10/1.5 mol%), luciferase mRNA, N/P 6
Entry class follows Particle size dispersity (PDI): group 1 (below 0.05), group 2 (0.05 to below 0.07), group 3 (0.07 or more)

[
  {
    "MOLECULE": "CCCCCCC/C=C\\COC(=O)CC(C)(C)CCCCC(CCCCC(C)(C)CC(=O)OCC(CCCCC)CCCCCCC)OC(=O)CCCN(C)C (centres unmarked)",
    "ASSIGNED_CLASS": "group 3"
  },
  {
    "MOLECULE": "CCCCCCCCCOC(=O)C(C)(C)CCCCCC(CCCCCC(C)(C)C(=O)OCCCCCCCCC)OC(=O)CCN(C)C",
    "ASSIGNED_CLASS": "group 1"
  }
]

## Task Which class holds CCCCCCCCOC(=O)C(C)(C)CCCCCC(CCCCCC(C)(C)C(=O)OCCCCCCCC)OC(=O)CCN(C)C ?
## Result group 1

## Task Which class holds CCCCC#CCCCCOC(=O)C(C)(C)CCCCCC(CCCCCC(C)(C)C(=O)OCCCCC#CCCCC)OC(=O)CCCN(C)C ?
## Result group 2

## Task Which class holds CCCCCCCCCCOC(=O)C(C)(C)CCCCCC(CCCCCC(C)(C)C(=O)OCCCCCCCCCC)OC(=O)CN(C)C ?
## Result group 3

## Task Which class holds CCCCCCCCCCNC(=O)C(C)(C)CCCCCC(CCCCCC(C)(C)C(=O)NCCCCCCCCCC)OC(=O)CCCN(C)C ?
## Result group 3

## Task Which class holds CCCCCCCCOC(=O)C(C)(C)CCCCCC(CCCCCC(C)(C)C(=O)OCCCCCCCC)OC(=O)CCCN(C)C ?
## Result group 3

## Task Which class holds CCCCCCCCCOC(=O)C(C)(C)CCCCCC(CCCCCC(C)(C)C(=O)OCC(CCCCC)CCCCCCC)OC(=O)CC1CCN(C)CC1 (centres unmarked) ?
## Result group 2

## Task Which class holds CCCCCCCCCOC(=O)C(C)(C)CCCCCC(CCCCCC(C)(C)C(=O)OCCCCCCCCC)OC(=O)CCCN(C)C ?
## Result group 3

## Task Which class holds CCCCCCCCN(CCCCCCCC)CCOC(=O)C(C)(C)CCCCCC(CCCCCC(C)(C)C(=O)OCCN(CCCCCCCC)CCCCCCCC)OC(=O)CCN(C)C ?
## Result group 2

## Task Which class holds CCCCCCCCCSC(=O)C(C)(C)CCCCCC(CCCCCC(C)(C)C(=O)SCCCCCCCCC)OC(=O)CC1CCN(CC)CC1 ?
## Result group 2

## Task Which class holds CCCCCCCCCOC(=O)CC(C)(C)CCCCC(CCCCC(C)(C)CC(=O)OCCCCCCCCC)OC(=O)CCCN(C)C ?
## Result group 3

## Task Which class holds CCCCCCCCCOC(=O)C(C)(C)CCCCCC(CCCCCC(C)(C)C(=O)OCC(CCCCC)CCCCCCC)OC(=O)CC1CCN(CCO)CC1 (centres unmarked) ?
## Result group 1

## Task Which class holds CCCCCCCCCOC(=O)C(C)(C)CCCCCC(CCCCCC(C)(C)C(=O)OCCCCCCCCC)OC(=O)C1CCN(C(C)C)CC1 ?
## Result group 1

## Task Which class holds CCCCCCCCCOC(=O)CCCCCCC(CCCCCCC(=O)OCC(CCCCC)CCCCCCC)OC(=O)CCCN(C)C (centres unmarked) [Compound D2, reference compound] ?
## Result group 3

###

Tested on: human embryonic kidney cells 293 (HEKi293T cells)
Experiment: CCK-8 cytotoxicity testing of lipid nanoparticle-treated cells
Type: cell-based
Set-up: concentration or dose not given beside the values
Conditions: HEK293T cells, LNP-treated 24 h, CCK-8, ratio to PBS negative control
ASSAY_READOUT: Cell viability (%)

Some molecules with known Cell viability (%) results, for comparison:
[
  {
    "MOLECULE": "CCCCCCCCOC(=O)C(C)(C)CCCCCC(CCCCCC(C)(C)C(=O)OCCCCCCCC)OC(=O)C1CCN(C)CC1",
    "STUDY_TARGET": "human embryonic kidney cells 293 (HEKi293T cells)",
    "Cell viability (%)": "104.67%"
  },
  {
    "MOLECULE": "CCCCC/C=C\\C/C=C\\CCCCCCCCC(CCCCCCCC/C=C\\C/C=C\\CCCCC)OC(=O)CCCN(C)C [DLin-MC3-DMA, reference compound]",
    "STUDY_TARGET": "human embryonic kidney cells 293 (HEKi293T cells)",
    "Cell viability (%)": "97.84%"
  },
  {
    "MOLECULE": "CCCCCCCCCSC(=O)C(C)(C)CCCCCC(CCCCCC(C)(C)C(=O)SCCCCCCCCC)OC(=O)CCCN(C)C",
    "STUDY_TARGET": "human embryonic kidney cells 293 (HEKi293T cells)",
    "Cell viability (%)": "97.48%"
  },
  {
    "MOLECULE": "CCCCCCCCCOC(=O)C(C)(C)CCCCCC(CCCCCC(C)(C)C(=O)SCCCCCCCCC)OC(=O)CCCN(C)C (centres unmarked)",
    "STUDY_TARGET": "human embryonic kidney cells 293 (HEKi293T cells)",
    "Cell viability (%)": "104.91%"
  }
]

## Task Identify Cell viability (%) associated with the molecule CCCCCCCCCOC(=O)C(C)(C)CCCCCC(CCCCCC(C)(C)C(=O)OCCCCCCCCC)OC(=O)CCCCCN(C)C
## Result 96.25%

FYI, the data here is from patent US12162819B2.
